test: Selectivity index, ratio of IC50 for protein translation inhibition in Escherichia coli S30 cell extract to IC50 for protein translation inhibition in rabbit reticulocytes; type: functional
Selectivity ratio vs 3: less than gives YES; not less than gives NO.

### Prompt Lab note: confirm whether the reported Selectivity ratio for this compound is below 3, equality not counting. compound: CC(=O)N(C)C1=NC(=O)C(N(C)C(=O)C[C@@H](N)CCCNC(=N)N)CN1 (mixture of isomers)
### Response NO

### Prompt Consider CN(C(=O)C[C@@H](N)CCCN1CCNC1=N)C1CNC(NC(N)=O)=NC1=O (mixture of isomers) . Does its Selectivity ratio lie strictly below 3?
### Response NO

### Prompt Lab log: compare recorded Selectivity ratio with 3; is it strictly lower for CCN(C(=O)C[C@@H](N)CCCNC(=N)N)C1CNC(NC(N)=O)=NC1=O (mixture of isomers) ?
### Response NO

### Prompt I'd appreciate it if you could check whether C/N=C(/N)NCCC[C@H](N)CC(=O)N(C)C1CN=C(NC(N)=O)NC1=O (mixture of isomers) has Selectivity ratio smaller than 3.
### Response NO

### Prompt Selectivity ratio strictly < 3 for this compound? CN[C@@H](CCCCN)CC(=O)N(C)C1CNC(NC(N)=O)=NC1=O (mixture of isomers)
### Response YES

### Prompt Does CN(C(=O)C[C@@H](N)C[C@@H]1CCNC1)C1CNC(NC(N)=O)=NC1=O (mixture of isomers) have Selectivity ratio strictly under 3?
### Response YES

### Prompt Say whether its Selectivity ratio is strictly beneath 3. Entry: C/N=C(/NC)NCCC[C@H](N)CC(=O)N(C)C1CNC(NC(N)=O)=NC1=O (mixture of isomers)
### Response NO

### Prompt Report whether reported Selectivity ratio is lower than 3 (strictly) for CN(C(=O)C[C@@H](N)c1cccc(NC(=N)N)c1)C1CNC(NC(N)=O)=NC1=O (mixture of isomers)
### Response NO

### Prompt API: query returns whether the compound falls strictly under 3 in Selectivity ratio. Query: CN(C(=O)C[C@@H](N)C[C@H]1CCN(C(=N)N)C1)C1CNC(NC(N)=O)=NC1=O (mixture of isomers)
### Response YES

### Prompt Item CN(C(=O)C[C@@H](N)C1CCN(C(=N)N)CC1)C1CNC(NC(N)=O)=NC1=O (mixture of isomers) : Selectivity ratio beneath 3, strictly?
### Response YES

### Prompt State whether 3 exceeds Selectivity ratio recorded for CN(C(=O)C[C@@H](N)CC1CCN(C(=N)N)CC1)C1CNC(NC(N)=O)=NC1=O (mixture of isomers) .
### Response NO

### Prompt Report whether reported Selectivity ratio is lower than 3 (strictly) for CN(C(=O)C[C@@H](N)CCCN=C(N)N)C1CN=C(NC(N)=O)NC1=O (mixture of isomers)
### Response YES

### Prompt For this compound, is Selectivity ratio lower than 3? CN(C(=O)C[C@@H](N)CC1CCNCC1)C1CNC(NC(N)=O)=NC1=O (mixture of isomers)
### Response YES

### Prompt Just wondering, is Selectivity ratio of CN(C(=O)C[C@@H](N)CCCCN)C1CN=C(NC(N)=O)NC1=O (mixture of isomers) below 3?
### Response NO

### Prompt Lab note: Selectivity ratio threshold 3. Does this compound come in strictly under it? CC(=O)NC1=NC(=O)C(N(C)C(=O)C[C@@H](N)CCCNC(=N)N)CN1 (mixture of isomers)
### Response YES

### Prompt Check if Selectivity ratio falls below 3 for CN(C(=O)C[C@@H](N)C[C@H]1CCNC1)C1CNC(NC(N)=O)=NC1=O (mixture of isomers) .
### Response YES

### Prompt Consider the compound CN(CC1CNC(NC(N)=O)=NC1=O)C(=O)C[C@@H](N)CCCNC(=N)N (mixture of isomers) . Is its Selectivity ratio strictly less than 3?
### Response YES

###

tested on: Staphylococcus aureus; assay: Antimicrobial activity against methicillin-resistant Staphylococcus aureus by NCCLS method; assay type: functional
Measure: MIC

Staphylococcus aureus assay, compound C/N=C(/N)NCCC[C@H](N)CC(=O)N(C)C1CN=C(NC(N)=O)NC1=O (mixture of isomers) , recorded MIC = 8 µg/mL

MIC for Staphylococcus aureus with input CN[C@@H](CCCCN)CC(=O)N(C)C1CNC(NC(N)=O)=NC1=O (mixture of isomers) equals 128 µg/mL

Entry CC(=O)N(C)C1=NC(=O)C(N(C)C(=O)C[C@@H](N)CCCNC(=N)N)CN1 (mixture of isomers) ; assay system Staphylococcus aureus; MIC recorded at 64 µg/mL

The compound CN(CC1CNC(NC(N)=O)=NC1=O)C(=O)C[C@@H](N)CCCNC(=N)N (mixture of isomers) on Staphylococcus aureus: MIC was > 500 µg/mL

I looked up CN(C(=O)C[C@@H](N)CCCN1CCNC1=N)C1CNC(NC(N)=O)=NC1=O (mixture of isomers) and its MIC for Staphylococcus aureus was 128 µg/mL

###

Field: MIC. Provide a value for each of the compounds that follow.
tested on: Staphylococcus aureus; assay: Antimicrobial activity against methicillin-resistant Staphylococcus aureus by NCCLS method; format: functional

Recorded MIC (compound CN(C(=O)C[C@H](CCCCN)NC=O)C1CNC(NC(N)=O)=NC1=O (mixture of isomers) ): > 500 µg/mL

The recorded MIC for entry CN1CC(N(C)C(=O)C[C@@H](N)CCCNC(=N)N)C(=O)N=C1NC(N)=O (mixture of isomers) equals > 500 µg/mL

Recorded result, CC(=O)NC(=N)NCCC[C@H](N)CC(=O)N(C)C1CNC(NC(N)=O)=NC1=O (mixture of isomers) , MIC: > 256 µg/mL

Briefly, MIC measured for CN(C(=O)C[C@@H](N)CCCNC(N)=O)C1CNC(NC(N)=O)=NC1=O (mixture of isomers) : > 500 µg/mL

What the record says about CN(C(=O)C[C@@H](N)CCCNC(=N)N)c1ccc(NC(N)=O)[nH]c1=O (mixture of isomers) : MIC is > 500 µg/mL

Looking up CN(C(=O)C[C@@H](N)CCCNC(=N)N)C1CNC(N2CCNC2=O)=NC1=O (mixture of isomers) , I see its MIC listed as > 500 µg/mL

Per the records, this compound ( CC(=O)NC1=CC(=O)C(N(C)C(=O)C[C@@H](N)CCCNC(=N)N)CN1 (mixture of isomers) ) has MIC equal to > 500 µg/mL

Per the records, this compound ( CN(C(=O)C[C@@H](N)CCC(=O)NC(=N)N)C1CNC(NC(N)=O)=NC1=O (mixture of isomers) ) has MIC equal to > 500 µg/mL

Value of MIC reported for the compound CN(C)C(=O)NC1=NC(=O)C(N(C)C(=O)C[C@@H](N)CCCNC(=N)N)CN1 (mixture of isomers) is > 500 µg/mL

Reported MIC ( CN(C(=O)C[C@@H](N)CCCNC(=N)N)C1CN=C(NC(N)=O)NC1 (mixture of isomers) ) = > 256 µg/mL

Value of MIC reported for the compound CN1C(=O)C(N(C)C(=O)C[C@@H](N)CCCNC(=N)N)CN=C1NC(N)=O (mixture of isomers) is > 500 µg/mL

In plain terms, CC/N=C(/N)NCCC[C@H](N)CC(=O)N(C)C1CN=C(NC(N)=O)NC1=O (mixture of isomers) has a documented MIC of > 256 µg/mL

# credit: ChEMBL document CHEMBL1681741
